tested on: Leishmania major; test: ST_JUDE: Cytotoxicity using Alamar Blue to measure viability of Leishmania major; type: functional, organism-based
Readings of EC50 for the listed compounds
Parameter: EC50

> print(dat)
                                   compound  parameter     result
1  Cc1ccc2c(c1)N(CCO)/C(=C/c1sc3ccccc3[n+]1C)S2       EC50  > 7.16 µM
2          Cc1cc(C)nc(/N=C(\N)Nc2ccccc2O)n1       EC50  > 14.6 µM
3  CCCCCCn1c(=N)n(CC(O)COc2ccccc2C)c2ccccc21 (stereo not given)       EC50  > 23.4 µM
4  COCCO/C(O)=C1\C(C)=NC2=C(C(=O)CC(c3ccc(OC)c(OC)c3)C2)C1c1ccccc1F (stereo not given)       EC50  > 17.1 µM
5  CCc1ccc(S(=O)(=O)NC2=C/C(=N\c3ccccc3OC)C(=O)c3ccccc32)cc1       EC50    > 17 µM

###

system: Plasmodium falciparum; assay: ST_JUDE: Plasmodium falciparum 3D7 EC50 (uM) as measured by SYBR green dye; assay type: functional, organism-based
pEC50: −log10 of the molar value.
Parameter: pEC50

> print(dat)
                                    molecule  readout.relation  quantitative.readout
 1             COc1ccc(C2N(C)c3ccccc3N2C)cc1                 <                  4.82
 2  CCN1/C(=C/c2sc3ccccc3[n+]2CCO)C=Cc2cc(OC)ccc21                 =                  5.97
 3                     C#CC[n+]1ccn2cccc2c1C                 =                  5.97
 4  CC(=O)c1c(C(C)=O)c(C)n(Cc2ccc(Cl)cc2)c1C                 <                  4.82
 5  Cc1cccc(NC(c2ccc(Br)cc2)c2ccc3cccnc3c2O)n1 (configuration not stated)                 =                  5.71
 6  O=[N+]([O-])c1cccc(NC(=S)Nc2ccc(OC(F)F)c(Cl)c2)c1                 =                  5.18
 7  Cc1cc(C)c2c(c1)c(-c1ccccc1)c(-c1ccccc1)n2CC(O)CN1CCN(CCO)CC1 (configuration not stated)                 =                  5.66
 8  CCCCCOc1ccc(NC2=C(N3CCCC3)C(=O)c3ccccc3C2=O)cc1                 <                  4.82
 9  Cn1c(=O)oc2cc(S(=O)(=O)N3CCCC(C(=O)N4CCN(C(c5ccccc5)c5ccccc5)CC4)C3)ccc21 (configuration not stated)                 =                  5.45
10  Cc1cc(N2CCCC2)nc(Nc2ccc(NS(=O)(=O)c3ccc(Cl)cc3)cc2)n1                 =                  5.67
11  CCCCCOc1ccc(N(C(C)=O)C2=C(N3CCCCC3)C(=O)c3ccccc3C2=O)cc1                 =                  6.14
12  O=C1C(Nc2cccc(Br)c2)=C(N2CCCCC2)C(=O)c2ccccc21                 =                  6.34
13  CCCCCOc1ccc(NC2=C(N3CCCCC3)C(=O)c3ccccc3C2=O)cc1                 =                  7.16
14  CCC1=Nc2cc(C(=O)NCc3ccco3)ccc2Sc2ccc(Cl)cc21                 =                  5.43
15  CCCCCn1c(=N)n(CC(O)COc2cccc(C)c2)c2ccccc21 (configuration not stated)                 =                  5.58
16  CC(=O)N(C1=C(N2CCCCC2)C(=O)c2ccccc2C1=O)c1ccc(F)cc1                 =                  5.57
17  O=C1C(Nc2cccc(C(F)(F)F)c2)=C(N2CCCCC2)C(=O)c2ccccc21                 =                  6.07
18  CCCCC(O)(c1ccc(OC)cc1)C(CN1CCCCC1)c1ccccc1 (configuration not stated)                 =                  5.34
19  Cc1ccc(-c2nc(C(=O)N(C)Cc3cccnc3)cs2)cc1F                 =                  5.36
20  Cc1ccc(CN2CCN(Cc3ccc(OCCO)cc3)CC2CCO)o1 (configuration not stated)                 <                  4.82
21  Cc1cccc(OCC(=O)Nc2cccc(-c3nnc(-c4ccccc4)o3)c2)c1                 <                  4.82
22  CCC1CCCCN1S(=O)(=O)c1ccc(C(=O)NNc2nc3c(C)cccc3s2)cc1 (configuration not stated)                 <                  4.82

###

Readings of pEC50 for the listed compounds
assay: ST_JUDE: Cytotoxicity using luciferase to measure ATP as an indicator of the viability of human epithelial hepatocellular carcinoma cells (HepG2); format: toxicity, cell-based
pEC50: −log10 of the molar value.
Parameter: pEC50

> print(dat)
                                    compound  parameter  readout.relation  quantitative.readout
 1  COc1ccc(NC(=O)C2c3ccccc3C(=O)N(C3CCCC3)C2c2cccs2)cc1 (stereo not given)      pEC50                 <                  4.39
 2  Cc1cccc(CN2CCC(CNC(=S)Nc3ccc4nc(N5CCN(C)CC5)cc(C)c4c3)CC2)c1      pEC50                 =                  5.22
 3  CCN(CC)CCn1c(=N)n(CC(O)c2ccc(Cl)c(Cl)c2)c2ccccc21 (stereo not given)      pEC50                 =                  5.14
 4  CCOc1ccc(N(C(C)=O)C2=C(N3CCOCC3)C(=O)c3ccccc3C2=O)cc1      pEC50                 =                  5.22
 5  CCOc1ccc(Nc2nc(NCc3ccccc3)c3ccccc3n2)cc1      pEC50                 =                  5.32
 6  CCOc1cc(C2CC(=O)NC3=C2C(=O)CC(c2ccccc2Cl)C3)cc(Cl)c1O (stereo not given)      pEC50                 <                  4.36
 7          Cc1cc(C)nc(/N=C(\N)Nc2ccccc2O)n1      pEC50                 <                  4.47
 8  Oc1ccc(Cl)cc1CN1CCN(c2cccc(C(F)(F)F)c2)CC1      pEC50                 <                  4.45
 9  CCO/C(O)=C1\C(C)=NC2=C(C(=O)CC(c3ccc(OC)c(OC)c3)C2)C1c1cccc(Cl)c1 (stereo not given)      pEC50                 <                  4.38
10  Cc1ccc(C2CC(C(F)(F)F)n3nc(C(=O)N4CCN(C(c5ccccc5)c5ccccc5)CC4)cc3N2)cc1 (stereo not given)      pEC50                 <                  4.37

###

Readings of EC50 for the listed compounds
test system: Leishmania major; assay: ST_JUDE: Cytotoxicity using Alamar Blue to measure viability of Leishmania major; assay type: functional, organism-based
Parameter: EC50

> print(dat)
                                    compound     result
 1  CCOC(=O)C1(Cc2cccc(C(F)(F)F)c2)CCN(Cc2ccccc2O)CC1  > 17.7 µM
 2  O=[N+]([O-])c1ccc(S(=O)(=O)N2CCN(C(=S)NCc3ccco3)CC2)cc1  > 13.6 µM
 3  CC(C)CN1C(=O)c2ccccc2C(C(=O)Nc2ccc(F)cc2F)C1c1cccs1 (stereo not given)  > 18.5 µM
 4  CCOc1ccc(NC(=O)C2c3ccccc3C(=O)N(CC(C)C)C2c2cccs2)cc1 (stereo not given)  > 18.3 µM
 5  O=S(=O)(c1ccc(Cl)cc1)N1CCN(C(=S)NCc2ccco2)CC1  > 12.9 µM
 6  N=c1n(CCN2CCCCC2)c2ccccc2n1CC(O)c1ccc(Cl)c(Cl)c1 (stereo not given)  > 21.9 µM
 7  CCOc1cc2c(cc1OCC)C(c1cc(C)c(O)c(C)c1)NCC2 (stereo not given)  > 22.2 µM
 8  O=C(c1ccccc1)N1CCN(c2ccccc2NC(=O)C(Cl)(Cl)Cl)CC1  > 14.4 µM
 9  CO/C(O)=C1\C(C)=NC2=C(C(=O)CC(c3ccc(OC)c(OC)c3)C2)C1c1ccc(F)cc1 (stereo not given)  > 19.8 µM
10  OC(CNC1CCCC1)Cn1c2ccc(Cl)cc2c2cc(Cl)ccc21 (stereo not given)  > 10.4 µM
